The values you see were collected from BindingDB's records for doi:10.1016/j.bmc.2008.10.052.

# maps each entry to its IC50
# tested-on: Cruzipain (Trypanosoma cruzi)
# Sequence (P25779 whole entry, the tested form may be a part): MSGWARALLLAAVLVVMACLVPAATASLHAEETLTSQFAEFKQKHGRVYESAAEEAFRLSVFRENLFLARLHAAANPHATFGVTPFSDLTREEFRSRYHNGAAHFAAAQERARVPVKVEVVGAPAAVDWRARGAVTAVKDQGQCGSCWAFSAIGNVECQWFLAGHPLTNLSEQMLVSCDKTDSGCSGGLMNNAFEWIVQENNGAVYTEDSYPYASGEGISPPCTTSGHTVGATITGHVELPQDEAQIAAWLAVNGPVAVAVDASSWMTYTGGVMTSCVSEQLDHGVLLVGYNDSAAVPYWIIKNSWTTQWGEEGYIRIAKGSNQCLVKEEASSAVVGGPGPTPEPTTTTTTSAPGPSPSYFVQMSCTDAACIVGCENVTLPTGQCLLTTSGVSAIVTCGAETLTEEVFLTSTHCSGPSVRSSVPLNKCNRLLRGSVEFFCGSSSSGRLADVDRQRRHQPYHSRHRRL
# measurement-notes: Inhibition of Trypanosoma cruzi C-terminal truncated cruzain expressed in DH5alpha Escherichia coli by well-microplate spectrophotometry

Sample answers from the record:
In [3]: df
Out[3]:
                                smiles_repr  test_result
0     Cc1cc(C(F)(F)F)nc(N=NCc2ccc(Cl)cc2)n1       100 µM
1        Cc1cc(C(F)(F)F)nc(N=NCc2ccccc2C)n1     > 100 µM
2        COc1ccc(CN=Nc2nccc(C(F)(F)F)n2)cc1     > 100 µM
3  O=[N+]([O-])c1ccc(CN=Nc2nccc(C(F)(F)F)n2)cc1       100 µM
4         Cc1ccc(CN=Nc2nccc(C(F)(F)F)n2)cc1     > 100 µM
5           Cc1ccccc1CN=Nc1nccc(C(F)(F)F)n1     > 100 µM

IN: Param item = `FC(F)(F)c1ccnc(N=NCc2ccccc2)n1` ; retrieve measured IC50.
OUT: > 150 µM

IN: Param item = `COc1ccccc1CN=Nc1nc(C)cc(C(F)(F)F)n1` ; retrieve measured IC50.
OUT: > 150 µM
